- assayed-system: Met receptor (EGFR/Met chimeric cells, EMR) (Homo sapiens, UniProt P08581)
- Construct: expressed in transfected cells; the other entry of the earlier key: EGFR (P00533, Epidermal growth factor receptor)
- Sequence (P08581 with tags, fused parts or gaps): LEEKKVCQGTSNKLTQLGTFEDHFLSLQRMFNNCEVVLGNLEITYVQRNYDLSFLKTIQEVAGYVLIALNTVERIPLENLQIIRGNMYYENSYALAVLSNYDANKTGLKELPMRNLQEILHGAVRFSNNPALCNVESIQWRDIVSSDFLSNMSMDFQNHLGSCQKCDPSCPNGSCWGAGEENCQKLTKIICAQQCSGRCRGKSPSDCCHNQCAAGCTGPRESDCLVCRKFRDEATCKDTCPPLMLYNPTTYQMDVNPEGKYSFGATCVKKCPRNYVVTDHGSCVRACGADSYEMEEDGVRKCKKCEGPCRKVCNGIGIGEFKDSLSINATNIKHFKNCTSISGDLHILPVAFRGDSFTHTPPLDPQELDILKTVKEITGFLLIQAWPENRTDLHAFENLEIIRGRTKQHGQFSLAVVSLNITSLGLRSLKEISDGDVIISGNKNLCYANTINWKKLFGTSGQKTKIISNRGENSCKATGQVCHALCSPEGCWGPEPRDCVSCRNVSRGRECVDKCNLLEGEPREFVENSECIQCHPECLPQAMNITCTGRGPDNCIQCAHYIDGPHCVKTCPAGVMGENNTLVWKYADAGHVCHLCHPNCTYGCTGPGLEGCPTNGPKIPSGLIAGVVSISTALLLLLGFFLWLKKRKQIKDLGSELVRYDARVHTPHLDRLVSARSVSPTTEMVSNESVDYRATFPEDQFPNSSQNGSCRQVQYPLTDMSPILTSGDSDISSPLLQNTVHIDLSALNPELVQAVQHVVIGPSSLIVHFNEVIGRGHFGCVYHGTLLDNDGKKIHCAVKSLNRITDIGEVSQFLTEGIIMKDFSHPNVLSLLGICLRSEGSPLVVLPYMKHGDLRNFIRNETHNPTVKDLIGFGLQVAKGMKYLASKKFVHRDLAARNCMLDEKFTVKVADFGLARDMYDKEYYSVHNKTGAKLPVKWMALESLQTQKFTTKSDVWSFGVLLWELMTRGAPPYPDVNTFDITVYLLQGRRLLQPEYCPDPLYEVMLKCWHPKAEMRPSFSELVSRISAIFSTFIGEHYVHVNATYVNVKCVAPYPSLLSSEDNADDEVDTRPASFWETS
- assay-comment: Met Autophosphorylation Assay
- Assay type: biochemical
- conditions: protocol P.130
Met Kinase % Inhibition (P.130) overview
measure-name: Met Kinase % Inhibition (P.130) (%)

- O=C1Nc2ccc(S(=O)(=O)Nc3ccc(C(F)(F)F)cc3)cc2C1=Cc1ccoc1 [10739/E10]: 71.9
- Cc1c(Br)cc(Br)c2c1C(=Cc1cc(O)ccc1[N+](=O)[O-])C(=O)N2 [10738/H05]: 73.6
- Cc1ccc(C)c(C=C2C(=O)Nc3ccc(I)cc32)c1 [10737/B07]: 82.5
- CCCOc1ccc(C=C2C(=O)Nc3ccc(S(=O)(=O)NC)cc32)cc1 [10738/D11]: 4.3

---

- assayed-system: EGFR (Homo sapiens)
- Construct: endogenous in cells; host or cells: A431 cells (lysate, captured with SUMO1 anti-EGFR antibody)
- assay-comment: Biochemical EGFR Assay
- Parameters: concentration or dose not given beside the values
- conditions: protocol P.167
measure-name: Biochem EGFR % Inhibition (P.167) (%)

• O=C1Nc2ccc(S(=O)(=O)N3CCOCC3)cc2C1=Cc1ccc2ccccc2c1 = 28.3
• CCCOc1ccc(C=C2C(=O)Nc3c(Br)cc(Br)c(C)c32)cc1 = −13.4
• O=C1Nc2ccc(S(=O)(=O)Nc3ccc(C(F)(F)F)cc3)cc2C1=Cc1ccc(CO)o1 = −23.4
• CNS(=O)(=O)c1ccc2c(c1)C(=Cc1ccc3ccccc3c1)C(=O)N2 = 5.6
• CNS(=O)(=O)c1ccc2c(c1)C(=Cc1cnc3ccccc3c1)C(=O)N2 = 0.0
• Cc1c(Br)cc(Br)c2c1C(=Cc1ccccc1C(F)(F)F)C(=O)N2 = −1.4
• Cc1c(Br)ccc2c1C(=Cc1cccc(Oc3ccc(Cl)c(Cl)c3)c1)C(=O)N2 = 8.2
• O=C1Nc2ccc(S(=O)(=O)Nc3ccc(C(F)(F)F)cc3)cc2C1=CC1COc2ccccc2O1 (stereo not drawn) = −11.3
• O=C1Nc2ccc(I)cc2C1=CC1COc2ccccc2O1 (stereo not drawn) = 32.0
• O=C1Nc2ccc(CCCl)cc2C1=Cc1ccc2ccccc2n1 = −1.2
• CNS(=O)(=O)c1ccc2c(c1)C(=Cc1cc(O)cc(O)c1)C(=O)N2 = −8.7
• O=C1Nc2ccc(I)cc2C1=Cc1cc(O)ccc1[N+](=O)[O-] = 57.6
• O=C1Nc2c(Br)cc(Br)cc2C1=Cc1ccc2ccccc2c1 = 35.8
• COc1cccc(C=C2C(=O)Nc3ccc(CCCl)cc32)c1 = −4.5
• CNS(=O)(=O)c1ccc2c(c1)C(=Cc1cccc(Oc3ccc(Cl)c(Cl)c3)c1)C(=O)N2 = 47.6
• COc1cccc(C=C2C(=O)Nc3c(Br)cc(Br)c(C)c32)c1 = 45.6
• Cc1c(Br)cc(Br)c2c1C(=Cc1ccccc1F)C(=O)N2 = −20.2
• CC(C)(C)c1ccc(Oc2cccc(C=C3C(=O)Nc4ccc(S(=O)(=O)Nc5ccc(C(F)(F)F)cc5)cc43)c2)cc1 = −4.2
• Cc1ccc(Oc2cccc(C=C3C(=O)Nc4c(Br)cc(Br)cc43)c2)cc1 = 16.7
• Cn1cc(C=C2C(=O)Nc3ccc(S(=O)(=O)N4CCOCC4)cc32)c2ccccc21 = −4.2
• CCCOc1ccc(C=C2C(=O)Nc3c(Br)cc(Br)cc32)cc1 = 4.5
• Cc1ccc(Oc2cccc(C=C3C(=O)Nc4ccc(S(=O)(=O)Nc5ccc(C(F)(F)F)cc5)cc43)c2)cc1 = 56.1
• O=C1Nc2ccc(S(=O)(=O)Nc3ccc(C(F)(F)F)cc3)cc2C1=Cc1ccc(OCc2ccccc2)cc1 = −35.5
• O=C1Nc2c(Br)cc(Br)cc2C1=Cc1cc(O)ccc1[N+](=O)[O-] = 33.6
• O=C1Nc2ccc(I)cc2C1=Cc1ccc(OCc2ccccc2)cc1 = 17.5
• O=C1Nc2ccc(S(=O)(=O)Nc3ccc(C(F)(F)F)cc3)cc2C1=Cc1cnc2ccccc2c1 = −7.7
• Cc1c(Br)cc(Br)c2c1C(=Cc1ccc(CO)o1)C(=O)N2 = 49.9
• O=C1Nc2ccc(CCCl)cc2C1=CC1COc2ccccc2O1 (stereo not drawn) = −23.0
• O=C1Nc2ccc(CCCl)cc2C1=Cc1cc(O)ccc1[N+](=O)[O-] = 27.3
• Cc1c(Br)cc(Br)c2c1C(=Cc1cc(O)c(O)c(O)c1)C(=O)N2 = 10.9

---

- assayed-system: EGFR (Homo sapiens, UniProt P00533)
- Construct: endogenous in cells; host or cells: A431 cells (lysate, captured with SUMO1 anti-EGFR antibody)
- Sequence (P00533 25-1210): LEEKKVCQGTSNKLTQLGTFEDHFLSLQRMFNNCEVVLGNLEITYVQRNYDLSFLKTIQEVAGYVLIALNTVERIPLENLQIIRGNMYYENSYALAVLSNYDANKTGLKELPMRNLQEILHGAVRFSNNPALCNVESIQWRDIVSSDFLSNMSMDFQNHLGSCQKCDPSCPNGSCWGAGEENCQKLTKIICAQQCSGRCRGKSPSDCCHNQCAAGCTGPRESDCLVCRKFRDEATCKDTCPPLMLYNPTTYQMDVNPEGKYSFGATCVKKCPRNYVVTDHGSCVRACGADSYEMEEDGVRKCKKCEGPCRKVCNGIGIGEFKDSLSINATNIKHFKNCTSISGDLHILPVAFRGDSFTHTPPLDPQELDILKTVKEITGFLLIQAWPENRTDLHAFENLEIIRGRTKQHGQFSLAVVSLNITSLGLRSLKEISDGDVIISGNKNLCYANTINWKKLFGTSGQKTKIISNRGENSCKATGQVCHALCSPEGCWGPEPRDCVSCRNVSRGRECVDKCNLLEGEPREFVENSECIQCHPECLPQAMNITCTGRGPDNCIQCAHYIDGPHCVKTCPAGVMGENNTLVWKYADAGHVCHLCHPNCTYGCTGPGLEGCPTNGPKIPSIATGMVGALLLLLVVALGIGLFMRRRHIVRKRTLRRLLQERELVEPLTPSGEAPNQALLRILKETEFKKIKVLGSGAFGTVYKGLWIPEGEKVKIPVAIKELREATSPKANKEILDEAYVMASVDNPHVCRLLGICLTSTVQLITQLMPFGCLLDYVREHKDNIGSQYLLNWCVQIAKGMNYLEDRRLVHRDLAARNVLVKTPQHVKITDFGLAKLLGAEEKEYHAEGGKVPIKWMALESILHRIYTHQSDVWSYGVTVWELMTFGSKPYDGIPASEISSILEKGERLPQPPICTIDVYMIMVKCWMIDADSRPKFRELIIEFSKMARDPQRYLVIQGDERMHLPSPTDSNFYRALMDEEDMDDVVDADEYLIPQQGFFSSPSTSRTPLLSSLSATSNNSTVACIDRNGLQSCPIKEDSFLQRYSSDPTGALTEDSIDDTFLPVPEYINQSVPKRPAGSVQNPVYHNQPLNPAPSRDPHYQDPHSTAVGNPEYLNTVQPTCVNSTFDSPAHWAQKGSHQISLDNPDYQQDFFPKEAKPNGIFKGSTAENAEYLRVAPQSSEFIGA
- assay-comment: Biochemical EGFR Assay
- Parameters: concentration or dose not given beside the values
measure-name: Biochem EGFR % Inhibition (P.167) (%)

* CCn1c2ccccc2c2cc(C=C3C(=O)Nc4c(Br)cc(Br)c(C)c43)ccc21 | −9.5
* O=C1Nc2c(Br)cc(Br)cc2C1=Cc1cccc(F)c1 | 30.2
* Cc1c(Br)ccc2c1C(=Cc1ccc(Cl)cc1)C(=O)N2 | −47.1
* Cc1c(Br)cc(Br)c2c1C(=Cc1cc(C(C)C)c(O)c(C(C)C)c1)C(=O)N2 | −8.2
* Cc1c(Br)ccc2c1C(=Cc1ccc([N+](=O)[O-])cc1)C(=O)N2 | 18.4
* O=C1Nc2ccc(I)cc2C1=Cc1cc(C(F)(F)F)cc(C(F)(F)F)c1 | 49.4
* O=C1Nc2c(Br)cc(Br)cc2C1=Cc1cccc2ccccc12 | 13.0
* O=C1Nc2ccc(S(=O)(=O)Nc3ccc(C(F)(F)F)cc3)cc2C1=Cc1ccccc1F | −47.3
* Cc1c(Br)cc(Br)c2c1C(=Cc1c[nH]cn1)C(=O)N2 | 0.5
* O=C1Nc2c(Br)cc(Br)cc2C1=Cc1ccc(Cl)cc1 | 7.7
* Cc1c(Br)ccc2c1C(=Cc1c(F)cccc1F)C(=O)N2 | −11.3
* O=C1Nc2ccc(S(=O)(=O)N3CCOCC3)cc2C1=Cc1ccc(F)c(F)c1 | 19.1
* O=C1Nc2ccc(I)cc2C1=Cc1ccc(Cl)cc1Cl | 30.1
* COc1ccc(C=C2C(=O)Nc3c(Br)cc(Br)c(C)c32)cc1OC | −49.6

---

Met Kinase % Inhibition (P.130) overview
- assayed-system: Met receptor (EGFR/Met chimeric cells, EMR) (Homo sapiens, UniProt P08581)
- Construct: expressed in transfected cells; the other entry of the earlier key: EGFR (P00533, Epidermal growth factor receptor)
- assay-comment: Met Autophosphorylation Assay
- Assay type: biochemical
- conditions: protocol P.130
measure-name: Met Kinase % Inhibition (P.130) (%)

• CNS(=O)(=O)c1ccc2c(c1)C(=Cc1cccc(OCc3ccccc3)c1)C(=O)N2 [10739/D03] = 15.9
• O=C1Nc2ccc(CCCl)cc2C1=Cc1ccc(Oc2ccccc2)cc1 [10737/G09] = 37.9
• CCOc1ccc(C=C2C(=O)Nc3ccc(S(=O)(=O)Nc4ccc(C(F)(F)F)cc4)cc32)cc1 [10737/E02] = 53.0
• O=C1Nc2ccc(S(=O)(=O)Nc3ccc(C(F)(F)F)cc3)cc2C1=Cc1cccc(F)c1F [10737/E05] = 80.9
• O=C1Nc2ccc(CCCl)cc2C1=Cc1ccccc1Cl [10736/G11] = 10.3
• O=C1Nc2ccc(S(=O)(=O)Nc3ccc(C(F)(F)F)cc3)cc2C1=Cc1ccc2ccccc2c1 [10737/E08] = 61.9
• CCCCOc1ccc(C=C2C(=O)Nc3ccc(S(=O)(=O)N4CCOCC4)cc32)cc1 [10740/F11] = 42.9
• CCOc1ccc(C=C2C(=O)Nc3ccc(I)cc32)cc1 [10737/B02] = 85.0
• CNS(=O)(=O)c1ccc2c(c1)C(=Cc1cccc(Oc3cccc(C(F)(F)F)c3)c1)C(=O)N2 [10737/D11] = 43.4
• O=C1Nc2ccc(I)cc2C1=Cc1ccc2ccccc2c1 [10737/B08] = 84.1
• COc1cccc(C=C2C(=O)Nc3ccc(CCCl)cc32)c1 [10736/G10] = 5.7
• COc1ccc(Oc2cccc(C=C3C(=O)Nc4ccc(I)cc43)c2)cc1 [10739/B08] = 65.8
• O=C1Nc2ccc(CCCl)cc2C1=Cc1ccsc1 [10740/G05] = 30.3

---

- System: FLK-1 receptor
- assay-comment: FLK-1 Assay (cellular/catalytic ELISA, VEGF-stimulated phosphotyrosine)
- Assay type: cell-based
- Set-up: concentration or dose not given beside the values
- conditions: protocol P.110
Flk Kinase % Inhibition (P.110) overview
measure-name: Flk Kinase % Inhibition (P.110) (%)

• COc1cccc(C=C2C(=O)Nc3ccc(CCCl)cc32)c1 [10736/G10] = 6.0
• O=C1Nc2ccc(S(=O)(=O)N3CCOCC3)cc2C1=Cc1cc(O)cc(O)c1 [10738/F07] = 6.4
• COc1ccc(C=C2C(=O)Nc3ccc(CCCl)cc32)cc1O [10738/G04] = −57.2
• CNS(=O)(=O)c1ccc2c(c1)C(=Cc1ccc3ccccc3c1)C(=O)N2 [10737/D08] = 15.3
• Cc1ccc(Oc2cccc(C=C3C(=O)Nc4c(Br)cc(Br)cc43)c2)cc1 [10738/A02] = −14.2
• CNS(=O)(=O)c1ccc2c(c1)C(=CC1COc3ccccc3O1)C(=O)N2 (centres unmarked) [10739/D05] = 12.2
• COc1ccc(Oc2cccc(C=C3C(=O)Nc4ccc(Br)c(C)c43)c2)cc1 [10739/C08] = 4.8
• CCCOc1ccc(C=C2C(=O)Nc3ccc(I)cc32)cc1 [10738/B11] = 8.8
• Cc1c(Br)cc(Br)c2c1C(=Cc1ccccc1Cl)C(=O)N2 [10736/H11] = 17.6
• CNS(=O)(=O)c1ccc2c(c1)C(=Cc1cn(C)c3ccccc13)C(=O)N2 [10740/D07] = −4.5
• O=C1Nc2c(Br)cc(Br)cc2C1=Cc1cccc(Oc2cccc(C(F)(F)F)c2)c1 [10737/A11] = 6.2
